Entries and their clearance values follow.
Experiment: Clearance in C57BL/6 mouse at 15 mg/kg, iv after 24 hrs by LC-MS/MS analysis
Type: ADME, organism-based
Settings: in vivo
Measurement Name: clearance (mL/min/kg)

COc1cc2[nH]c(C#N)cc2c(C)c1CN1CCC(Nc2ncnc3sc(CC(F)(F)F)cc23)CC1
26.6
N#Cc1cc2cc(CN3CCC(Nc4ncnc5sc(CC(F)(F)F)cc45)CC3)c(O)cc2n1Cc1cn[nH]c1
14
N#Cc1cc2cc(CN3CCC(Nc4ncnc5sc(CC(F)(F)F)cc45)CC3)ccc2[nH]1
38.1
Cc1c(CN2CCC(Nc3ncnc4sc(CC(F)(F)F)cc34)CC2)c(O)cc2[nH]c(C#N)cc12
44.1

###

Assay: Growth inhibition of MLL-AF9 transformed mouse bone marrow cells after 7 days by MTT assay
Assay type: functional
Details: Bone marrow cell, 168 h
Measurement Name: GI50 (nM)

N#Cc1cc2cc(CN3CCC(Nc4ncnc5sc(CC(F)(F)F)cc45)CC3)ccc2n1CC(N)=O
780
COc1cc2c(cc(C#N)n2Cc2c[nH]nn2)c(C)c1CN1CCC(Nc2ncnc3sc(CC(F)(F)F)cc23)CC1
410
N#Cc1[nH]c2ccc(CN3CCC(Nc4ncnc5sc(CC(F)(F)F)cc45)CC3)cc2c1N
5200
Cc1c(C#N)[nH]c2ccc(CN3CCC(Nc4ncnc5sc(CC(F)(F)F)cc45)CC3)cc12
2600
N#Cc1cc2cc(CN3CCC(Nc4ncnc5sc(CC(F)(F)F)cc45)CC3)c(F)cc2[nH]1
3000
Cc1c(CN2CCC(Nc3ncnc4sc(CC(F)(F)F)cc34)CC2)ccc2c1cc(C#N)n2CCO
440
COc1cc2[nH]c(C#N)cc2c(C)c1CN1CCC(Nc2ncnc3sc(CC(F)(F)F)cc23)CC1
100
COc1cc2c(cc(C#N)n2CC(N)=O)c(C)c1CN1CCC(Nc2ncnc3sc(CC(F)(F)F)cc23)CC1
420

###

System: Mus musculus
Assay: Half life in C57BL/6 mouse at 15 mg/kg, iv after 24 hrs by LC-MS/MS analysis
Type: ADME, organism-based
Conditions: in vivo
Measurement Name: t1/2 (h)

N#Cc1cc2cc(CN3CCC(Nc4ncnc5sc(CC(F)(F)F)cc45)CC3)c(O)cc2n1Cc1cn[nH]c1
1.6
N#Cc1cc2cc(CN3CCC(Nc4ncnc5sc(CC(F)(F)F)cc45)CC3)ccc2[nH]1
3.1
COc1cc2[nH]c(C#N)cc2c(C)c1CN1CCC(Nc2ncnc3sc(CC(F)(F)F)cc23)CC1
1.8
Cc1c(CN2CCC(Nc3ncnc4sc(CC(F)(F)F)cc34)CC2)c(O)cc2[nH]c(C#N)cc12
1.7

###

System: Mus musculus
Assay: Volume of distribution at steady state in C57BL/6 mouse at 15 mg/kg, iv after 24 hrs by LC-MS/MS analysis
Format: ADME, organism-based
Details: in vivo
Measurement Name: Vdss (L/kg)

COc1cc2[nH]c(C#N)cc2c(C)c1CN1CCC(Nc2ncnc3sc(CC(F)(F)F)cc23)CC1
3.698
N#Cc1cc2cc(CN3CCC(Nc4ncnc5sc(CC(F)(F)F)cc45)CC3)ccc2[nH]1
6.516
Cc1c(CN2CCC(Nc3ncnc4sc(CC(F)(F)F)cc34)CC2)c(O)cc2[nH]c(C#N)cc12
4.454
N#Cc1cc2cc(CN3CCC(Nc4ncnc5sc(CC(F)(F)F)cc45)CC3)c(O)cc2n1Cc1cn[nH]c1
2.347

Data provenance: ChEMBL document CHEMBL3779881
